# method: chemical genetic growth profiling, strain panel (AID 1159580);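 further: tested at 20 µM; growth read once vehicle control cultures reached saturation at 30 °C; 1 = growth at the plate median or of vehicle wells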
# conditionDetails: S. cerevisiae deletion strains, growth OD, locus YLR258W, strain gsy2, stronger effect = lower value
Among all 5,500 compounds or so, about 2,000 (36%) were called active. About 18% were inconclusive and are not listed. Some of the results follow.
Each entry below carries its recorded normalized growth.
Form field (numeric): enter value without unit.

Look over these answered cases.
compound=NC(=O)CN1CCCC1=O experimentalresult=0.99
compound="CCCCC1C(=O)N(c2ccccc2)N(c2ccc(O)cc2)C1=O (centres undefined)" experimentalresult=0.998
compound=COc1ccccc1/C=C\C(=O)O experimentalresult=0.987
compound="CC1(C)C2CC(=O)[C@]3(C)C(CC[C@@]4(C)[C@H](c5ccoc5)OC(=O)C5OC543)[C@@]2(C)[C@@H](O)C[C@H]1O (some centres undefined)" experimentalresult=1.01
compound="NS(=O)(=O)c1cc(C2(O)NC(=O)c3ccccc32)ccc1Cl (centres undefined)" experimentalresult=0.999

Identify the reported normalized growth for the following entry. `CC1(C)O[C@H]2CC(=O)OC[C@]23[C@H]2CC[C@@]4(C)[C@H](c5ccoc5)OC(=O)[C@H]5O[C@]54[C@]2(C)C(=O)C[C@@H]13`
0.996

Identify the reported normalized growth for the following entry. `COc1ccc(Cl)cc1C(=O)NCCc1ccc(S(=O)(=O)NC(=O)NC2CCCCC2)cc1`
0.982

Identify the reported normalized growth for the following entry. O=c1ccc2cc(OC3OC(CO)C(O)C(O)C3O)c(O)cc2o1 (centres undefined)
0.972

Identify the reported normalized growth for the following entry. CC1(C)C2CC(=O)[C@]3(C)C(CC[C@@]4(C)[C@H](c5ccoc5)OC(=O)[C@H]5O[C@]543)[C@@]2(C)C(=O)C[C@H]1O (some centres undefined)
1.01

---

# method: chemical genetic growth profiling, strain panel (AID 1159580);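 further: tested at 20 µM; growth read once vehicle control cultures reached saturation at 30 °C; 1 = growth at the plate median or of vehicle wells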
# conditionDetails: S. cerevisiae deletion strains, growth OD, locus YNL071W, strain lat1
Hit rate of the full screen: of about 5,500 compounds, about 2,000 (36%) were called active. About 18% were inconclusive and are not listed. No stated cut-off is given here; in the data, active means normalized growth mostly below about 0.91 (no sharp cut-off); inconclusive means no clear call, values can overlap the other calls; inactive means mostly above about 0.92. This is one part of the list.
Use one of these outcomes when replying: active, inactive

Reference set (3 entries):
molecule=CCc1cc(C(N)=S)ccn1 discretelabel=inactive
molecule="CNC(C)C(O)c1ccccc1 (centres undefined)" discretelabel=inactive
molecule="NC(=O)NCCCC(N)C(=O)O (centres undefined)" discretelabel=inactive

Would you mind telling me which call this test gave `C[C@@H]([C@H](O)c1ccccc1)N(C)C` ?
inactive

Would you mind telling me which call this test gave `CNC(=O)Oc1cccc2c1OC(C)(C)O2` ?
inactive

Would you mind telling me which call this test gave `COC1=CC(=O)C(C(=O)c2ccccc2)=CC1=O` ?
inactive

Would you mind telling me which call this test gave C[N+](C)(C)CC(O)CC(=O)O (centres undefined) ?
inactive

---

# method: chemical genetic growth profiling, strain panel (AID 1159580);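 further: tested at 20 µM; growth read once vehicle control cultures reached saturation at 30 °C; 1 = growth at the plate median or of vehicle wells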
# conditionDetails: S. cerevisiae deletion strains, growth OD, locus YOR083W, strain WHI5
The whole screen tested about 5,500 compounds, of which about 2,000 (36%) were called active. Another 18% or so got no clear call; they are omitted. Rule as the data show it: active = normalized growth mostly below about 0.91 (no sharp cut-off); inconclusive = no clear call, values can overlap the other calls; inactive = mostly above about 0.92. The list shows a part of the results.
Use one of these outcomes when replying: active, inactive

Reference set (5 entries):
compound="CC(CC(O)C1OC1(C)C)[C@@H]1CCC2(C)C3=CCC4C(C)(C)C(=O)CCC4(C)C3CC[C@@]12C (stereo partly drawn)" discretelabel=inactive
compound=COc1cc(OC)c2c(=O)c(O)c(-c3ccc(OC)c(OC)c3)oc2c1 discretelabel=active
compound=COc1ccc(-c2cc(=O)c3c(O)cc(O[C@H]4O[C@H](CO[C@@H]5O[C@@H](C)[C@H](O)[C@@H](O)[C@H]5O)[C@@H](O)[C@H](O)[C@H]4O)cc3o2)cc1 discretelabel=inactive
compound="CC(C1OC(C)(C)C(O)C1O)[C@@H]1CC[C@]2(C)C3=CCC4C(C)(C)C(=O)CC[C@]4(C)C3CC[C@@]12C (stereo partly drawn)" discretelabel=inactive
compound="O=C(Cc1cccs1)NC1C(=O)N2C(C(=O)[O-])=C(C[n+]3ccccc3)CSC12 (stereo not drawn)" discretelabel=inactive

Would you mind telling me which call this test gave `CCCCCC(=O)Cc1cc(O)cc(O)c1C(=O)Oc1cc(CC(=O)CCCCC)c(C(=O)O)c(OC)c1` ?
inactive

Would you mind telling me which call this test gave `C=C(C)[C@H]1COc2cc3oc(=O)ccc3cc2O1` ?
active

Would you mind telling me which call this test gave `COc1ccc(-c2oc3c(CC=C(C)C)c(O[C@@H]4O[C@H](CO)[C@@H](O)[C@H](O)[C@H]4O)cc(O)c3c(=O)c2O[C@@H]2O[C@@H](C)[C@H](O)[C@@H](O)[C@H]2O)cc1` ?
inactive
